- procedure-details: Maximum soluble concentration in the DPPH assay
- Assay type: physicochemical
- reported-conditions: ethanol (ethanolic solution of the DPPH assay), ethanolic solutions, read-out: maximum concentration at which the compound is soluble
recorded-metric: solubility (µM)
Value expressed in µM; do not type the unit.

[ask] Please look up its solubility: O=C1CC(c2ccc(O)cc2)C(=Cc2ccc(O)cc2)c2oc3cccc(O)c3c(=O)c21 (stereo not shown)
[reply] 552

====

- tested-system: AChE from Electrophorus electricus (Electrophorus electricus, UniProt O42275)
- Sequence (O42275 24-633): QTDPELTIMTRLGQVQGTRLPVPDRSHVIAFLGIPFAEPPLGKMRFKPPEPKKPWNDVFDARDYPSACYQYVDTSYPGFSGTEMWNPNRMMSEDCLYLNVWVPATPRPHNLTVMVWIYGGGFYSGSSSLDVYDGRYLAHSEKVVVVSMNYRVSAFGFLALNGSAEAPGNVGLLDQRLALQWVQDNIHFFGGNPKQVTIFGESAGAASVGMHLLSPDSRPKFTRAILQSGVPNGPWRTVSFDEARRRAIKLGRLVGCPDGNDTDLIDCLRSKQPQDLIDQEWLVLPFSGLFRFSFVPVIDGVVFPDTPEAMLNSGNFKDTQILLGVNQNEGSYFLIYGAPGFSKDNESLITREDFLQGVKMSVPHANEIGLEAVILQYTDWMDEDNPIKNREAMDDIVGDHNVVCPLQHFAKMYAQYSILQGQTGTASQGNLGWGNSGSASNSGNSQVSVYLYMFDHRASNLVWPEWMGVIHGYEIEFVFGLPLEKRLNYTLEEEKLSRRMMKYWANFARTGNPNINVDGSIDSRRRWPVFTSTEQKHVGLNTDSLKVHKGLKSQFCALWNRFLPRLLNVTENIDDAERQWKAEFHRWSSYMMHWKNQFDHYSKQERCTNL
recorded-metric: IC50

[ask] Query IC50 on AChE from Electrophorus electricus (Electrophorus electricus, UniProt O42275) for O=C1CC(c2ccc(O)cc2)C(=Cc2ccc(O)cc2)c2oc3cccc(O)c3c(=O)c21 (stereo not drawn) [Compound 5c]
[reply] 41.1 µM

[ask] Query IC50 on AChE from Electrophorus electricus (Electrophorus electricus, UniProt O42275) for Cc1ccc(/C=C2/c3oc4cccc(O)c4c(=O)c3C(=O)CC2c2ccc(C)cc2)cc1 (stereo not drawn) [Compound 5b]
[reply] > 355 µM

[ask] Query IC50 on AChE from Electrophorus electricus (Electrophorus electricus, UniProt O42275) for O=C1CC(c2ccc(Cl)cc2)C(=Cc2ccc(Cl)cc2)c2oc3cccc(O)c3c(=O)c21 (stereo not drawn) [Compound 5d]
[reply] > 325 µM

[ask] Query IC50 on AChE from Electrophorus electricus (Electrophorus electricus, UniProt O42275) for O=C1CC(c2ccccc2Cl)/C(=C\c2ccccc2Cl)c2oc3cccc(O)c3c(=O)c21 (stereo not drawn) [Compound 5f]
[reply] > 325 µM

[ask] Query IC50 on AChE from Electrophorus electricus (Electrophorus electricus, UniProt O42275) for O=C1CC(c2ccccc2)C(=Cc2ccccc2)c2oc3cccc(O)c3c(=O)c21 (stereo not drawn) [Compound 5a]
[reply] > 381 µM

[ask] Query IC50 on AChE from Electrophorus electricus (Electrophorus electricus, UniProt O42275) for O=C1CC(c2ccc(O)c(O)c2)C(=Cc2ccc(O)c(O)c2)c2oc3cccc(O)c3c(=O)c21 (stereo not drawn) [Compound 5e]
[reply] 31 µM
